// provenance: PubChem BioAssay AID1159580

- Assay protocol: chemical genetic growth profiling, strain panel (AID 1159580);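 also: tested at 20 µM; growth read once vehicle control cultures reached saturation at 30 °C; 1 = growth at the plate median or of vehicle wells; lower values mean less growth of the strain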
- Assay context: S. cerevisiae deletion strains, growth OD, locus YCL016C, strain dcc1, active compounds read low
About 2,000 (36%) of roughly 5,500 compounds were called active. Roughly 18% stayed inconclusive and do not appear here. The list shows a part of the results.
Could you mark each record label 1 if its normalized growth falls strictly under 1, and label 0 if it equals or exceeds it?

>  <Molecule>
O=C(OOC(=O)c1ccccc1)c1ccccc1

>  <Group>
label 1

$$$$
>  <Molecule>
CC(CCC(=O)O)[C@H]1CCC2C3CC[C@@H]4C[C@H](O)CC[C@]4(C)C3C=C[C@@]21C (some centres not stated)

>  <Group>
label 1

$$$$
>  <Molecule>
CC(C)C[C@@H](CN)CC(=O)O

>  <Group>
label 0

$$$$
>  <Molecule>
COC(=O)c1c(C)c2c(c(C)c1O)OC(=O)c1c(C)c(Cl)c(O)c(Cl)c1O2

>  <Group>
label 1

$$$$

* * *

- Assay protocol: chemical genetic growth profiling, strain panel (AID 1159580);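 also: tested at 20 µM; growth read once vehicle control cultures reached saturation at 30 °C; 1 = growth at the plate median or of vehicle wells; lower values mean less growth of the strain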
- Assay context: S. cerevisiae deletion strains, growth OD, locus YML120C, strain ndi1, active compounds read low
The whole screen tested about 5,500 compounds, of which about 2,000 (36%) were called active. Not shown: some 18% with an inconclusive outcome. The list shows a part of the results.
Observable: normalized growth

>  <Molecule>
CC1=CCCC2C1(C)CCC(C)C2(C)CC/C(C)=C/C[n+]1cn(C)c2c(N)ncnc21 (centres undefined)

>  <Numeric value>
0.931

$$$$
>  <Molecule>
CC[N+](C)(C)c1cccc(O)c1

>  <Numeric value>
1.04

$$$$
>  <Molecule>
COc1ccc(C2Sc3ccccc3N(CCN(C)C)C(=O)C2OC(C)=O)cc1 (centres undefined)

>  <Numeric value>
0.982

$$$$
>  <Molecule>
NS(=O)(=O)c1cc2c(cc1Cl)NC(CSCc1ccccc1)=NS2(=O)=O

>  <Numeric value>
1.04

$$$$
>  <Molecule>
CN(C)CCCN1c2ccccc2Sc2ccc(Cl)cc21

>  <Numeric value>
0.082

$$$$
>  <Molecule>
CC(C)=CCc1c2c(c3occ(-c4ccc(O)cc4)c(=O)c3c1O)C=CC(C)(C)O2

>  <Numeric value>
0.99

$$$$
>  <Molecule>
COC1CC2CCC(C)C(O)(O2)C(=O)C(=O)N2CCCCC2C(=O)OC(C(C)CC2CCC(O)C(OC)C2)CC(=O)C(C)/C=C(\C)C(O)C(OC)C(=O)C(C)CC(C)/C=C/C=C/C=C/1C (centres undefined)

>  <Numeric value>
0.0575

$$$$
>  <Molecule>
O=P1(NCCCl)OCCCN1CCCl (centres undefined)

>  <Numeric value>
0.968

$$$$
>  <Molecule>
C=C1C[C@]23C[C@@]1(O)CC[C@H]2[C@@]12C=C[C@H](O)[C@@](C)(C(=O)O1)[C@H]2[C@@H]3C(=O)O

>  <Numeric value>
1.01

$$$$

* * *

- Assay protocol: chemical genetic growth profiling, strain panel (AID 1159580);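 also: tested at 20 µM; growth read once vehicle control cultures reached saturation at 30 °C; 1 = growth at the plate median or of vehicle wells; lower values mean less growth of the strain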
- Assay context: S. cerevisiae deletion strains, growth OD, locus YML120C, strain ndi1, active compounds read low
Out of some 5,500 compounds screened, about 2,000 (36%) were called active. Another 18% or so got no clear call; they are omitted. Some of the results follow.

>  <Molecule>
C=C1c2c(Cl)ccc(O)c2C(O)=C2C(=O)[C@]3(O)C(O)=C(C(N)=O)C(=O)[C@@H](N(C)C)[C@@H]3[C@@H](O)[C@H]12

>  <normalized growth>
0.993

$$$$
>  <Molecule>
C[C@H]1c2cccc(O)c2C(O)=C2C(=O)[C@]3(O)C(O)=C(C(N)=O)C(=O)[C@@H](N(C)C)[C@@H]3[C@@H](O)[C@@H]21

>  <normalized growth>
0.97

$$$$
>  <Molecule>
CC1(C)CC2C1CC[C@]1(CBr)CCC3C(CC(=O)O)C(=O)O[C@@]32C1 (some centres undefined)

>  <normalized growth>
1.02

$$$$
>  <Molecule>
CC(C)=CC1C(C(=O)O)C1(C)C (centres undefined)

>  <normalized growth>
0.987

$$$$
>  <Molecule>
C/C1=C/CC(C)(C)/C=C/C/C(C)=C/CC1

>  <normalized growth>
1

$$$$
>  <Molecule>
C=C1c2cccc(O)c2C(O)=C2C(=O)[C@]3(O)C(O)=C(C(N)=O)C(=O)[C@@H](N(C)C)[C@@H]3[C@@H](O)[C@H]12

>  <normalized growth>
1.01

$$$$
>  <Molecule>
CC(C)(C)NC[C@H](O)c1ccc(O)c(CO)c1

>  <normalized growth>
1.01

$$$$
>  <Molecule>
CC(C)=CCc1c2c(c3occ(-c4ccc(O)c(O)c4)c(=O)c3c1O)C=CC(C)(C)O2

>  <normalized growth>
0.956

$$$$
>  <Molecule>
CC(=O)O[C@H]1CC[C@@]2(C)C(=CC(=O)C3C4CCC(C(C)CCCC(C)C)[C@@]4(C)CCC32)C1 (some centres undefined)

>  <normalized growth>
0.997

$$$$
